The origin of these recorded values is paper PMC6071530.

Subject Of Test: T1, Recombinant human S100A4 (human, UniProt P26447 1-101)
T1 construct: S100A4 protein, human, recombinant
Procedure Summary: SPR; BIAcore 2000; 2000 RU of recombinant human S100A4 immobilized covalently on a CM4 chip; soluble AR or NRG as analyte
Condition Parameters: both partners purified
Quantity Measured: pKd
Give bare numbers, as −log10 of the molar value.

Recorded pKd of amphiregulin (ligand, UniProt P15514 101-187, looked up, amphiregulin (AR), soluble, ligand of EGFR; also called AR; source: bought: R&D Systems (carrier free)) SVRVEQVVKPPQNKTESENTSDKPKRKKKGGKNGKNRRNRKKKNPCNAEFQNFCIHGECKYIEHLEAVTCKCQQEYFGERCGEKSMK , please.
7.15
